Data provenance is ChEMBL document CHEMBL1155776.

test system: Clostridioides difficile; test: Antimicrobial activity against epidemic Clostridium difficile BI9 by broth dilution method; type: functional
Measured MIC of individual entries
measurementType: MIC (µg/mL)

>>> value("C[C@H]1COc2c(N3CCN(C)CC3)c(F)cc3c(=O)c(C(=O)O)cn1c23.C[C@H]1COc2c(N3CCN(C)CC3)c(F)cc3c(=O)c(C(=O)O)cn1c23.O")
256
>>> value("CO/N=C(\\C(=O)N[C@@H]1C(=O)N2C(C(=O)O)=C(CSc3nc(=O)c(O)nn3C)CS[C@H]12)c1csc(N)n1")
32
>>> value("COc1c(N2CCNC(C)C2)c(F)cc2c(=O)c(C(=O)O)cn(C3CC3)c12 (centres undefined)")
64
